Test system: COLO 205 colon
procedure summary: NCI-60 one-dose screen, 48 h
test settings: 10 µM unless noted
The panel holds about 83,000 compounds, 20% with a hit somewhere; the sample as a whole holds those more often. The source made the active and inactive calls. How the source made its calls: active means growth percent below 10; inactive means the rest.
Respond only with the outcome that fits, drawn from YES (active), NO (inactive)

[
  {
    "compound": "COc1ccc(-c2nn(-c3cccc(Cl)c3)cc2/C=C2\\C(=N)N(c3ccccc3)N=C2N)cc1",
    "assigned category": "YES"
  },
  {
    "compound": "CC(=O)c1ccc(Nc2nc(Cl)nc(Oc3c(Cl)cccc3Cl)n2)cc1",
    "assigned category": "NO"
  },
  {
    "compound": "Nc1c(C(=O)c2ccc(Br)cc2)sc2nc3c(cc12)CCCC3",
    "assigned category": "NO"
  },
  {
    "compound": "O=C1Cc2c([nH]c3ccc([N+](=O)[O-])cc23)-c2ccccc2N1",
    "assigned category": "YES"
  },
  {
    "compound": "Cc1cc(C)c2c(n1)sc1c(Nc3ccc(Cl)cc3Cl)ncnc12",
    "assigned category": "NO"
  }
]

IN: Give the logged outcome of this assay for the following compound: CCCCN(CCCC)CCCN=c1nc2c(c(N)n1-c1ccccc1)c(=S)n(-c1ccccc1)c(=S)n2-c1ccccc1
OUT: YES

----------
Test system: SNB-19 CNS
procedure summary: NCI-60 one-dose screen, 48 h (100 = growth as untreated, 0 = no growth, -100 = all killed)
test settings: 10 µM unless noted
The panel holds about 83,000 compounds, 20% with a hit somewhere; the sample as a whole holds those more often.
endpoint name: growth (%)
Give bare numbers, in %.

Observe how each entry below is paired with its result.
[
  {
    "compound": "CCN(CC)CCNc1c(C)cc(CO)c(Cl)c1C",
    "growth / %": 92.8
  },
  {
    "compound": "Cn1nc(C(F)(F)F)cc1-c1cc(Cl)c(OCc2ccc(Cl)cc2)c(-c2ccc(Cl)c(C(F)(F)F)c2)c1O",
    "growth / %": 17.4
  },
  {
    "compound": "Cn1nc(C(F)(F)F)cc1-c1c[nH]c(OCc2ccc(Cl)cc2)c(-c2ccc(Cl)c(C(F)(F)F)c2)c1=O",
    "growth / %": 21.1
  },
  {
    "compound": "CCCc1n(Cc2ccc3ccccc3c2)c2ccccc2[n+]1Cc1ccc2ccccc2c1",
    "growth / %": -76
  },
  {
    "compound": "CCN(CC)CCCC(C)N/C(c1cccc(OC)c1)=c1\\c(=O)[nH]n(-c2c3ccccc3nc3ccccc23)c(=O)\\c1=C(/NC(C)CCCN(CC)CC)c1cccc(OC)c1 (centres undefined)",
    "growth / %": 13
  }
]

Give growth for each listed item.
1. O=C(c1ccccc1)N(CCCCl)C(=O)N(CCCCl)C(=O)c1ccccc1
2. COc1ccc(-c2oc(=O)ccc2-c2cc(OC)c(OC)c(OC)c2)cc1F
3. CCNC(=S)N(Cc1ccccc1)Cc1ccccc1
4. O=C(NCCNC(=O)c1cc(S(=O)(=O)NCCc2ccccc2)c(O)c(O)c1O)c1cc(S(=O)(=O)NCCc2ccccc2)c(O)c(O)c1O
5. CCN(CC)c1ccc2nc3c4ccccc4c(=O)cc-3n(-c3ccccc3)c2c1
6. COc1ccc(NC(=O)C2c3ccccc3C(=O)N(CC(C)C)C2c2cccs2)cc1 (centres undefined)
7. Cc1cc(C)c([O-])c(CN(C)CCN(C)Cc2cc(C)cc(C)c2[O-])c1.O=C([O-])c1cccc(C(=O)[O-])n1.[Ti+4]

OUT:
[97.4, 92.1, 123, 35.7, 23.6, 111, 26.6]

Give growth for each listed item.
1. CC(=O)OC1Oc2cc(C)c(C)cc2-c2oc(=O)c(-c3ccc(F)cc3)cc21 (centres undefined)
2. CNCc1ccccc1CN(CC(=O)Nc1ccc2c(c1)CC1(C2)C(=O)Nc2ncccc21)C(=O)C(C)(C)C (centres undefined)
3. O=C1C=CC(=O)N1CO
4. Nc1c(C(=O)Nc2cccc(Cl)c2)sc2ncc(Br)cc12
5. Cc1ccc(Nc2nc(NCCO)c3ccccc3n2)cc1C

OUT:
90.5
103
103
107
57

Give growth for each listed item.
1. COc1ccc(-c2cnc3ccnn3c2-c2cc(OC)c(OC)c(OC)c2)cc1
2. CN(C)c1ccc(/C=N/Nc2nnc3n2N=C(c2ccc(Cl)cc2)CS3)cc1

OUT:
1: 56.4; 2: 89.6
